The origin of these recorded values is ChEMBL document CHEMBL1138208.

assay: Bioavailability in dog at 0.2 mg/kg, iv and 0.4 mg/kg, po; assay type: ADME, organism-based, Canis lupus familiaris; details: in vivo
readout_kind: bioavailability (%)
One number for each entry, in %.

Data request, read-out bioavailability, for C[C@H](NC(=O)C(C)(C)Oc1ccc(C(F)(F)F)cn1)[C@@H](Cc1ccc(Cl)cc1)c1cccc(C#N)c1
31

###

species on record: Homo sapiens; test: Protein binding in human liver microsome; assay type: ADME; conditions: microsomes
Record form. Attribute: log10 Activity. Fill in for each entry.
Values reflect log10 of reported Activity (pmol/mg).

| query_smiles | readout_value |
| --- | --- |
| C[C@H](NC(=O)C(C)(C)Oc1ccccc1)[C@@H](Cc1ccc(Cl)cc1)c1ccccc1 | 3.59 |
| C[C@H](NC(=O)C(C)(C)Oc1ccc(C(F)(F)F)cn1)[C@@H](Cc1ccc(Cl)cc1)c1ccccc1 | 1.94 |
| C[C@H](NC(=O)C(C)(C)Oc1ccc(Cl)cn1)[C@@H](Cc1ccc(Cl)cc1)c1ccccc1 | 2.48 |

Count: 3. Required value per item: log10 Activity.
1. C[C@H](NC(=O)C(C)(C)Oc1ccccn1)[C@@H](Cc1ccc(Cl)cc1)c1ccccc1
2. C[C@H](NC(=O)C(C)(C)Oc1ccc(C(F)(F)F)cn1)[C@@H](Cc1ccc(Cl)cc1)c1cccc(C#N)c1
3. C[C@H](NC(=O)C(C)(C)Oc1cc(F)cc(F)c1)[C@@H](Cc1ccc(Cl)cc1)c1ccccc1

1. 2.96
2. 1.43
3. 3.23
